For each of the molecules below, state its Control of weed species, LOLPE (damage score).
# Test system: Lolium perenne (LOLPE)
# measurement_protocol: Post-emergence herbicidal activity
# Type: in vivo
# settings: post-emergence application, 1000 g/Ha, evaluated after 13 days, scale 0-5; Table 7
One number for each entry.

Worked cases, answers included:
# smiles_record, numeric_value
rows = [
    ("CSc1cncc(-c2nc(C)c(N(C)C(=O)OC(C)(C)C)s2)c1", 3),
    ("Cc1nc(-c2cccnc2)sc1N(C)C(=O)OC(C)C", 3),
]

Next up:
Query string: Answer with the recorded Control of weed species, LOLPE (damage score) of CCOC(=O)N(C)c1sc(-c2cccnc2)nc1C only.
Result string: 2

----------
# Test system: Oryza sativa (ORYSA)
# measurement_protocol: Pre-emergence herbicidal activity
# Type: in vivo
# settings: pre-emergence application, 1000 g/Ha, evaluated after 13 days, scale 0-5
metric_name: Control of weed species, ORYSA (damage score)
Numbers only.

# smiles_record, numeric_value
records = [
    ("Cc1nc(-c2cccnc2)sc1N(C)C(=O)NOC(C)(C)C", 2),
    ("CN(C(=O)OC(C)(C)C)c1sc(-c2cccnc2)nc1F", 2),
    ("CN(C(=O)OC(C)(C)C)c1sc(-c2cncc(F)c2)nc1Br", 0),
]

// input: 4 molecules below; output: Control of weed species, ORYSA (damage score) for each
1. Cc1nc(-c2cncc(Cl)c2)sc1N(C)C(=O)OC(C)(C)C
2. Cc1nc(-c2cncc(C(F)(F)F)c2)sc1N(C)C(=O)OC(C)(C)C
3. Cc1nc(-c2cncc(N)c2)sc1N(C)C(=O)OC(C)(C)C
4. CN(C(=O)OC(C)(C)C)c1sc(-c2cccnc2)nc1I

Result string:
[0, 1, 2, 1]

----------
For each of the molecules below, state its Control of weed species, LOLPE (damage score).
# System: Lolium perenne (LOLPE)
# measurement_protocol: Post-emergence herbicidal activity
# Format: in vivo
# settings: post-emergence application, 1000 g/Ha, evaluated after 13 days, scale 0-5; Table 7
One number for each entry.

Worked cases, answers included:
# molecule, numeric_value
records = [
    ("CN(C(=O)OC(C)(C)C)c1sc(-c2cncc(F)c2)nc1I [Compound A52]", 3),
    ("CN(C(=O)OC(C)(C)C)c1sc(-c2cccnc2)nc1Br [Compound A30]", 4),
]

// input: 6 molecules below; output: Control of weed species, LOLPE (damage score) for each
1. Cc1nc(-c2cncc(OCc3ccccc3)c2)sc1N(C)C(=O)OC(C)(C)C [Compound A14]
2. Cc1nc(-c2cc(F)c[n+]([O-])c2)sc1N(C)C(=O)OC(C)(C)C [Compound A62]
3. CCN(C(=O)OC(C)(C)C)c1sc(-c2cccnc2)nc1C [Compound A17]
4. Cc1nc(-c2cncnc2)sc1N(C)C(=O)OC(C)(C)C [Compound A2]
5. Cc1nc(-c2cccnc2)sc1N(C)C(=O)NOC(C)(C)C [Compound A45]
6. COc1cncc(-c2nc(C(F)(F)F)c(N(C)C(=O)OC(C)(C)C)s2)c1 [Compound A28]

Result string:
[0, 4, 2, 3, 4, 3]

// input: 7 molecules below; output: Control of weed species, LOLPE (damage score) for each
1. CN(C(=O)OC(C)(C)C)c1sc(-c2cncnc2)nc1C(F)(F)F [Compound A26]
2. Cc1nc(-c2cncc(Cl)c2)sc1N(C)C(=O)OC(C)(C)C [Compound A4]
3. Cc1nc(-c2cccnc2)sc1N(C)C(=S)SC(C)(C)C [Compound A23]
4. Cc1nc(-c2cncc(N)c2)sc1N(C)C(=O)OC(C)(C)C [Compound A11]
5. CN(C(=O)OC(C)(C)C)c1sc(-c2cccnc2)nc1Cl [Compound A29]
6. Cc1nc(-c2cncc(C(N)=O)c2)sc1N(C)C(=O)OC(C)(C)C [Compound A8]
7. Cc1nc(-c2cncc(OC(F)F)c2)sc1N(C)C(=O)OC(C)(C)C [Compound A16]

Result string:
[4, 2, 0, 1, 4, 0, 4]
